Biological target: T1, human IL-11 (AAH12506.1, Pro22-Leu199) (human, UniProt P20809 22-199)
T1 construct: The range Pro22-Leu199 counts on AAH12506.1; The Octet runs say only 'human IL-11'; also called hIL-11
T1 chain: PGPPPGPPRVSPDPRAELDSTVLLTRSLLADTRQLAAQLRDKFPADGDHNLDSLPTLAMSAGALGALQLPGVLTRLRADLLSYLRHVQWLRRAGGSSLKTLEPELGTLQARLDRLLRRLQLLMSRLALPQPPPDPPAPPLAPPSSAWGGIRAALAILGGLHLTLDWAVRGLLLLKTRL
Test: BLI (Octet), antibody captured, human IL-11 in solution
endpointName: koff (s⁻¹)
Note: unit s⁻¹ is implicit; provide only the numeric part.

# binder, koff [s⁻¹]
data = [
    ("hz8C8-VHm2 + hz8C8-VL (antibody, human IgG1, kappa, V domains shown, human IgG1 constant regions) VH: EVQLVESGGGLVQPGGSLRLSCAASGFTFSSFGMHWVRQAPGKGLEWVAYITAGSNTIYYADTVKGRFTISRDNAKNSLYLQMNSLRAEDTAVYYCAREYYSYDEGFAYWGQGTLVTVSS VL: EIVLTQSPATLSLSPGERATLSCSVSSSISSNYLHWYQQKPGQAPRLLIYRTSNLASGIPARFSGSGSGTDFTLTISSLEPEDFAVYYCQQGVDVPFTFGQGTKLEIKR", 0.000586),
]

Exercise: Reported koff, binder hz8C8-VHm1-m2 + hz8C8-VLm7 (antibody, human IgG1, kappa, V domains shown, human IgG1 constant regions) VH: EVQLVESGGGLVQPGGSLRLSCAASGFTFSSFGMHWVRQAPGKGLEWVASITPGSNTIYYADTVKGRFTISRDNAKNSLYLQMNSLRAEDTAVYYCAREYYSYDEGFAYWGQGTLVTVSS VL: EIVLTQSPATLSLSPGERATLSCSVSDLIPSQYLHWYQQKPGQAPRLLIYRTSNLASGIPARFSGSGSGTDFTLTISSLEPEDFAVYYCQQGVDVPFTFGQGTKLEIKR : ____
Key: 0.00355
